The values you see were collected from PubChem BioAssay AID1895.

# target desc: MEK5 PB1 domain binding to MEKK2 (MAP3K2) mutant PB1, human
# assay details: mutant MEKK2 PB1-MEK5 interaction blockers – biochemical, bead multiplex flow cytometry, dose response (AID 1895)
# test settings: Bead-based multiplex flow cytometry, measured here: Ki for PB1 binding
This section presents molecules with their documented pKi values.
Scale for pKi: -log10 of concentration given in mol/L; no unit attached.

Here are 5 molecules together with their reported answers.
CCNc1ccc2noc3c2c1C(=O)c1ccccc1-3 5.36
CCN1C(c2ccccc2)=C(c2ccccc2)S/C1=C\C=C1/SC(=S)N(C)C1=O 5.48
CN1C(=CC=C2C=C(I)C(=O)C(I)=C2)C(C)(C)c2ccccc21 5.30
Cc1cc2ccccc2n1CCNC(=O)c1ccc(Br)o1 5.54
CCC(=C/c1sc2ccc3ccccc3c2[n+]1C)/C=C1\Sc2ccc3ccccc3c2N1C 6.85

So, `CCN(CC)CCOC(=O)c1ccc(N/C=C(/C#N)c2nc(-c3cc4ccccc4oc3=O)cs2)cc1` ? Its pKi was 5.32

----------
# target desc: MEK5 PB1 domain binding to MEKK2 (MAP3K2) mutant PB1, human
# assay details: mutant MEKK2 PB1-MEK5 interaction blockers – biochemical, bead multiplex flow cytometry, dose response (AID 1895)
# test settings: Bead-based multiplex flow cytometry
Active and inactive are the calls of the source. No rule for the calls is given here.
This section presents molecules with their documented EC50 values.

Here are 2 molecules together with their reported answers.
molecule	EC50
CCN(CC)CCOc1ccc2c(c1)C(=NNC(=O)c1ccccn1)c1cc(OCCN(CC)CC)ccc1-2	5.52 µM
O=C(Nc1ccc(Cl)cn1)c1ccc2c(Cl)c3c(nc2c1)CCC3	> 30 µM (inactive)

So, `O=C1c2ccccc2-c2onc3ccc(NCCCn4ccnc4)c1c23` ? Its EC50 was > 30 µM (inactive)

----------
# target desc: MEK5 PB1 domain binding to MEKK2 (MAP3K2) mutant PB1, human
# assay details: mutant MEKK2 PB1-MEK5 interaction blockers – biochemical, bead multiplex flow cytometry, dose response (AID 1895)
# test settings: Bead-based multiplex flow cytometry
Activity calls are given as the source filed them. No rule for the calls is given here.
Your response should consist of one outcome taken from active, inactive

compound	assigned label
S=C(Nc1cccc(Cl)c1)N(CCCN1CCCC1)Cc1cccn1Cc1ccc(Cl)cc1	active
CCCN1C(=O)/C(=C\C=C2/Sc3ccccc3N2CC)SC1=S	inactive

With those in mind, consider the next compound.
GET /call?item= `Cc1cc2ccccc2n1CCNC(=O)c1ccccc1` returns the recorded outcome of this test.
inactive

----------
# target desc: MEK5 PB1 domain binding to MEKK2 (MAP3K2) mutant PB1, human
# assay details: mutant MEKK2 PB1-MEK5 interaction blockers – biochemical, bead multiplex flow cytometry, dose response (AID 1895)
# test settings: Bead-based multiplex flow cytometry
Calls of active or inactive are those of the source. No rule for the calls is given here.
measured endpoint: EC50

compound	EC50
CC(C)n1cc(CN2CCC(C(=O)Nc3cccc(-c4cccc(Cl)c4)c3)CC2)cn1	> 30 µM (inactive)
Cc1ccc(-c2c[n+](CC(=O)Nc3nc(-c4ccc(F)cc4)cs3)c3n2CCC3)cc1	> 30 µM (inactive)

So, `NC(N)=N/N=C/c1ccc(OCc2ccc(Cl)cc2Cl)cc1` ? Its EC50 was 2.66 µM

So, `CCc1ccc(Nc2n[n+](-c3ccccc3)c(-c3cc(OC)c(OC)cc3Br)s2)cc1` ? Its EC50 was 8.3 µM

So, CC(=O)Nc1ccc(OCC(O)Cn2c3ccccc3c3ccccc32)cc1 (configuration not stated) ? Its EC50 was > 30 µM (inactive)

So, `C#CCOCCOCCOCCNc1nc(N2CCN(C(=O)[C@H]([C@@H](C)CC)n3cc([C@@H](N)Cc4ccc(O)cc4)nn3)CC2)nc(N2CCN(C(=O)[C@H](CCCCN)n3cc([C@@H](N)CC(C)C)nn3)CC2)n1` ? Its EC50 was 14.7 µM

So, `C#CCOCCOCCOCCNc1nc(N2CCN(C(=O)[C@H](CCCCN)n3cc([C@@H](N)CC(C)C)nn3)CC2)nc(N2CCN(C(=O)[C@H](Cc3cc4ccccc4[nH]3)n3cc([C@@H](N)Cc4ccc(O)cc4)nn3)CC2)n1` ? Its EC50 was 11.1 µM
